system: MDA-MB-231 breast; experiment: NCI-60 one-dose screen, 48 h (100 = growth as untreated, 0 = no growth, -100 = all killed); settings: 10 µM
This is part of a sample that, as a whole, favours compounds with a hit. Of some 83,000 tested, about 20% had one in any assay.
QUANTITY_NAME: growth (%)

1. Cc1nc2ccc(CN(C)c3ccc(C(=O)N[C@@H](CCC(=O)O)C(=O)O)s3)cc2c(=O)[nH]1 = 89.4
2. COc1ccc(C(=O)/C=C/c2cc(-c3cc(OC)c(OC)c(OC)c3)n[nH]2)cc1 = 38.5
3. O=C1/C(=C/c2ccc([N+](=O)[O-])o2)Oc2ccccc21 = -17.3
4. CC(C)=NNc1ncnc2c1ncn2C1OC(CO)C(O)C1O (centres undefined) = 19.3
5. CN(C)CCN1C(=O)c2cccc3c(-c4ccc5ncn(C6CCCCC6)c5c4)ccc(c23)C1=O = 33.6
6. CC[C@H]1CCC/C=C/[C@@H]2C[C@H](O)C[C@H]2[C@H](O)/C=C/C(=O)O1 = -88.4
7. COc1cc(CNCCCCCCN2C(=O)c3cccc4cccc(c34)C2=O)ccc1O = 81.5
8. O=C(Nc1ccncc1)C(=O)c1cn(S(=O)(=O)c2ccc(F)cc2)c2ccccc12 = 57.8
9. O=C(Nc1cccc(-n2cc(-c3ccncc3)c(-c3ccc(O)c(Cl)c3)n2)c1)c1ccc(N2CCOCC2)c(C(F)(F)F)c1 = -30.5

* * *

tested on: SK-OV-3 ovarian; experiment: NCI-60 one-dose screen, 48 h (100 = growth as untreated, 0 = no growth, -100 = all killed); settings: 10 µM
This is part of a sample that, as a whole, favours compounds with a hit. Of some 83,000 tested, about 20% had one in any assay.
Rule: growth below 60% gives 1. Equal to or above 60% gives 0.

1) C/C(=N\Nc1nc2ccccc2s1)c1ccncn1 = 1
2) COc1cc(OC)cc(-c2cncn2-c2ccc(-c3nc4cc(OC)cc(OC)c4s3)cc2)c1 = 0
3) COc1cc(Nc2ccnc(NCCNc3ccnc4cc(Cl)ccc34)n2)cc(OC)c1 = 0
4) O=C(/C=C/c1cc2ccccc2[nH]c1=O)c1ccc2c(c1)OCO2 = 0
5) COC(=O)c1ccc(=O)oc1 = 0
6) COc1ccc2c(c1)nc(N)c1c3cccnc3cn21 = 1
7) COc1ccc(Cl)cc1-n1nnc(-c2nc3ccccc3[nH]2)c1N = 0
8) Cc1ccc(NC(=O)Nc2cccnc2)cc1NC(=O)Nc1cccnc1 = 0
9) FC(F)(F)c1ccc(-c2cnc(-n3cc(COCCN4CCCCC4)nn3)nc2NC2CCCCCC2)cc1 = 1
10) COC(=O)C(C(C[N+](=O)[O-])c1ccccc1)=P(c1ccccc1)(c1ccccc1)c1ccccc1 (configuration not stated) = 0
11) CS(=O)(=O)Nc1ccc(Nc2c3ccccc3nc3cc([N+](=O)[O-])ccc23)cc1 = 1
12) CC(=O)CSC(C)=O = 0
13) CCCCCCc1cc(N=Nc2ccc(S(=O)(=O)Nc3cc(C)nc(C)n3)cc2)c(O)cc1O = 0
14) Cc1occc1-c1nnc(SCC(=O)c2ccc(NC(=O)CC(C)C)cc2)o1 = 0
15) Cc1nc2ccccc2c(N)c1-c1cc(C)c2c(C)nc3ccccc3c2n1 = 0
16) Nc1ncn([C@@H]2O[C@H](CO)[C@@H](O)[C@H]2O)c(=O)n1 = 1
17) O=C(NC(Cc1ccc(O)cc1)C(=O)N=Nc1c(O)[nH]c2ccccc12)c1ccccc1 (configuration not stated) = 0
18) CCCCCCCNc1nc(C=O)ncc1-c1ccc(C(F)(F)F)cc1 = 0
19) COc1ccc(/C=C/C(=O)Nc2ccc(-c3nc4ccc(OC)cc4s3)cc2)cc1 = 0
20) COc1ccc(N=C2C(=Nc3ccc(OC)cc3)N(c3ccc(N(C)C)cc3)C(=S)N2c2ccc(OC)cc2)cc1 = 0
21) COc1cc([C@@H]2c3cc4c(cc3C(Br)[C@H]3COC(=O)[C@H]23)OCO4)cc(OC)c1OC (some centres not stated) = 1
22) O=[N+]([O-])c1ccc(Oc2cc(Cl)c(Cl)cc2Cl)c(C(F)(F)F)c1 = 0
23) COc1cc(NC(=O)CSc2nc3ccccc3c(=O)n2CCc2ccccc2)cc(OC)c1OC = 1
24) N=c1c2c(-c3ccccc3)c(-c3ccccc3)n(Cc3ccccc3)c2ncn1CCCO = 0
25) C#Cc1ccc(-n2c(/C=C/c3ccc(O)cc3)nc3ncccc3c2=O)cc1 = 1
26) COc1ccc(-c2nc3ccccn3c2-c2nnc(-c3cc(OC)c(OC)c(OC)c3)o2)cc1 = 1
27) COc1ccc2c(c1)N(CCO)C1=C(C(=O)OC1)C2c1ccccc1 (configuration not stated) = 1
28) O=C(O)c1ccc(Cl)cc1Nc1ccc(F)cc1 = 0
29) O=C(O)c1ccc(P(=O)(O)O)c([N+](=O)[O-])c1 = 0
30) CC[C@H](C)C(=O)O[C@H]1CCC=C2C=C[C@H](C)C(CCC3C[C@@H](O)CC(=O)O3)[C@H]21 (some centres not stated) = 0
31) CCC(=O)N1C/C(=C/c2ccc(OC)cc2)C(=O)/C(=C/c2ccc(OC)cc2)C1 = 1
32) COc1ccc(S(=O)(=O)Nc2c(/C=C\c3cc(OC)c(OC)c(OC)c3)ccc(OC)c2O)cc1 = 1
33) COc1cc(-c2nc(-c3nnc(-c4ccc(F)c(Cl)c4)o3)c3ccccn23)cc(OC)c1OC = 1
34) N#Cc1cccc(OCc2nc(N)nc(N)c2-c2ccc(Cl)c(Cl)c2)c1 = 1
35) O=C(N/N=C/c1ccccc1)C(Oc1ccccc1)c1ccccc1 (configuration not stated) = 0
36) Nc1ccc2c(c1)Cc1cc(N)c(Br)cc1-2 = 0
37) NC(=O)CC1(c2ccccc2)CCCCC1 = 0
38) O=C1/C(=C\c2ccc(F)cc2)CN(C(=O)c2ccc([N+](=O)[O-])cc2)C/C1=C\c1ccc(F)cc1 = 1
39) CCN1Cc2c(/C=C/c3ccccc3)nc3ccc(OC)cc3c2N(c2cccc(Cl)c2)C1 = 0
40) COc1cc(-c2cc(/C=C3\C(=O)Nc4ccccc43)[nH]n2)cc(OC)c1OC = 0
41) CSc1nc(=O)n(Cc2ccc(Cl)cc2)c(=O)[nH]1 = 0
42) COc1cc(-c2nc(Nc3nc4ccccc4s3)[nH]c(=O)c2C#N)cc(OC)c1O = 0
